- Organism: Rattus norvegicus
- procedureDetails: Open TG-GATES - Regimen: Daily Repeat
- Type: toxicity, organism-based, Sprague-Dawley
- Design: regimen Daily Repeat, gender Male, age 6 weeks
- testConditions: in vivo, po, 300 mg/kg, […], tissue Blood, route gavage, dose level Middle, time 7 day
Known RBC of a selection of molecules
Enter your answer as a number in x10_4/ul; do not include the unit.

**Q:** Reported RBC for `CNC(=C[N+](=O)[O-])NCCSCc1ccc(CN(C)C)o1` : what is it?
**A:** 644.2

**Q:** Report RBC for `Cc1nnc2n1-c1ccc(Cl)cc1C(c1ccccc1Cl)=NC2` please.
**A:** 637.8

**Q:** Can you share its RBC? I mean this molecule: `O=C(OC[C@H]1O[C@@H](OC(=O)c2cc(O)c(O)c(OC(=O)c3cc(O)c(O)c(O)c3)c2)[C@H](OC(=O)c2cc(O)c(O)c(OC(=O)c3cc(O)c(O)c(O)c3)c2)[C@@H](OC(=O)c2cc(O)c(O)c(OC(=O)c3cc(O)c(O)c(O)c3)c2)[C@@H]1OC(=O)c1cc(O)c(O)c(OC(=O)c2cc(O)c(O)c(O)c2)c1)c1cc(O)c(O)c(OC(=O)c2cc(O)c(O)c(O)c2)c1`
**A:** 631.8

----------
// reported Ca for each item listed
- Organism: Rattus norvegicus
- procedureDetails: Open TG-GATES - Regimen: Daily Repeat
- Assay type: toxicity, organism-based, Sprague-Dawley
- Design: regimen Daily Repeat, gender Male, age 6 weeks
- testConditions: in vivo, po, 300 mg/kg, […], tissue Plasma, route gavage, dose level Middle, time 28 day
Numbers only; they are read as mg/dL.

INSERT INTO measurements (compound, measuredendpoint, experimentalresult) VALUES
  ('O=C(OC[C@H]1O[C@@H](OC(=O)c2cc(O)c(O)c(OC(=O)c3cc(O)c(O)c(O)c3)c2)[C@H](OC(=O)c2cc(O)c(O)c(OC(=O)c3cc(O)c(O)c(O)c3)c2)[C@@H](OC(=O)c2cc(O)c(O)c(OC(=O)c3cc(O)c(O)c(O)c3)c2)[C@@H]1OC(=O)c1cc(O)c(O)c(OC(=O)c2cc(O)c(O)c(O)c2)c1)c1cc(O)c(O)c(OC(=O)c2cc(O)c(O)c(O)c2)c1 [TANNIC ACID]', 'Ca', 11),
  ('Cc1nnc2n1-c1ccc(Cl)cc1C(c1ccccc1Cl)=NC2 [TRIAZOLAM]', 'Ca', 10.7),
  ('COC(=O)C1=C(C)NC(C)=C(C(=O)OC)C1c1ccccc1[N+](=O)[O-] [NIFEDIPINE]', 'Ca', 10.3),
  ('CNC(=C[N+](=O)[O-])NCCSCc1ccc(CN(C)C)o1 [RANITIDINE]', 'Ca', 10.5);

Now examine the next entry.
**Q:** Query (compound): CN/C(=N/CCSCc1nc[nH]c1C)NC#N [CIMETIDINE] ; field requested: Ca
**A:** 10.1

----------
- Organism: Rattus norvegicus
- procedureDetails: Open TG-GATES - Regimen: Daily Repeat
- Type: toxicity, organism-based, Sprague-Dawley
- Design: regimen Daily Repeat, gender Male, age 6 weeks
- testConditions: in vivo, po, 1000 mg/kg, 72 h, tissue Blood, route gavage, dose level High, time 3 day
# Lookup of reported Ht keyed by entry
Give the value in % but do not write % after it.

Worked set:
INSERT INTO assay_data (molecule, measuredendpoint, experimentalresult) VALUES
  ('CNC(=C[N+](=O)[O-])NCCSCc1ccc(CN(C)C)o1 [RANITIDINE]', 'Ht', 39.8),
  ('O=C(OC[C@H]1O[C@@H](OC(=O)c2cc(O)c(O)c(OC(=O)c3cc(O)c(O)c(O)c3)c2)[C@H](OC(=O)c2cc(O)c(O)c(OC(=O)c3cc(O)c(O)c(O)c3)c2)[C@@H](OC(=O)c2cc(O)c(O)c(OC(=O)c3cc(O)c(O)c(O)c3)c2)[C@@H]1OC(=O)c1cc(O)c(O)c(OC(=O)c2cc(O)c(O)c(O)c2)c1)c1cc(O)c(O)c(OC(=O)c2cc(O)c(O)c(O)c2)c1 [TANNIC ACID]', 'Ht', 39.6),
  ('CCOc1ccc(NC(C)=O)cc1 [PHENACETIN]', 'Ht', 37.2),
  ('Cc1nnc2n1-c1ccc(Cl)cc1C(c1ccccc1Cl)=NC2 [TRIAZOLAM]', 'Ht', 41.1),
  ('CN/C(=N/CCSCc1nc[nH]c1C)NC#N [CIMETIDINE]', 'Ht', 38.7);

**Q:** Which Ht value belongs to COC(=O)C1=C(C)NC(C)=C(C(=O)OC)C1c1ccccc1[N+](=O)[O-] [NIFEDIPINE] ?
**A:** 42.2

----------
- Species on record: Rattus norvegicus
- procedureDetails: Open TG-GATES - Regimen: Single
- Format: toxicity, organism-based, Sprague-Dawley
- Parameters: regimen Single, gender Male, age 6 weeks
- testConditions: in vivo, po, 100 mg/kg, 3 h, tissue Blood, route gavage, dose level Low
measuredEndpoint: Ret (%)
The reply should contain only the number, in %.

INSERT INTO results (smilestext, unitabbreviation, experimentalresult) VALUES
  ('O=C(OC[C@H]1O[C@@H](OC(=O)c2cc(O)c(O)c(OC(=O)c3cc(O)c(O)c(O)c3)c2)[C@H](OC(=O)c2cc(O)c(O)c(OC(=O)c3cc(O)c(O)c(O)c3)c2)[C@@H](OC(=O)c2cc(O)c(O)c(OC(=O)c3cc(O)c(O)c(O)c3)c2)[C@@H]1OC(=O)c1cc(O)c(O)c(OC(=O)c2cc(O)c(O)c(O)c2)c1)c1cc(O)c(O)c(OC(=O)c2cc(O)c(O)c(O)c2)c1', '%', 10.1),
  ('Cc1nnc2n1-c1ccc(Cl)cc1C(c1ccccc1Cl)=NC2', '%', 9.1),
  ('CN/C(=N/CCSCc1nc[nH]c1C)NC#N', '%', 8.3),
  ('COC(=O)C1=C(C)NC(C)=C(C(=O)OC)C1c1ccccc1[N+](=O)[O-]', '%', 9.3);

Alright, here's another compound for you.
**Q:** Reported Ret for `CNC(=C[N+](=O)[O-])NCCSCc1ccc(CN(C)C)o1` : what is it?
**A:** 7.4

----------
- Species: Rattus norvegicus
- procedureDetails: Open TG-GATES - Regimen: Daily Repeat
- Assay type: toxicity, organism-based, Sprague-Dawley
- Parameters: regimen Daily Repeat, gender Male, age 6 weeks
- testConditions: in vivo, po, 0 mg/kg, […], tissue Plasma, route gavage, dose level Control, time 7 day
Everything with GLC lower than 200 mg/dL is Not met; everything else, including exactly 200 mg/dL, is Met.

INSERT INTO measurements (molecule, category) VALUES
  ('CN1C(=O)CCS(=O)(=O)C1c1ccc(Cl)cc1 (configuration not stated) [CHLORMEZANONE]', 'Not met');

**Q:** API: above_or_equal(metric=GLC, cutoff=200 mg/dL) for item CN(C)CCC(c1ccc(Cl)cc1)c1ccccn1 (configuration not stated) [CHLORPHENIRAMINE]
**A:** Not met

**Q:** Hello, I need to know if CNC(=C[N+](=O)[O-])NCCSCc1ccc(CN(C)C)o1 [RANITIDINE] has measured GLC not below 200 mg/dL. Thanks!
**A:** Met

**Q:** Quick check: does Brc1ccccc1 [BROMOBENZENE] have GLC greater than or equal to 200 mg/dL?
**A:** Not met

**Q:** Reported GLC at or above 200 mg/dL? COC(=O)C1=C(C)NC(C)=C(C(=O)OC)C1c1ccccc1[N+](=O)[O-] [NIFEDIPINE]
**A:** Not met

**Q:** Can NC1=NC(=O)C(c2ccccc2)O1 (configuration not stated) [PEMOLINE] be said to have GLC at or above 200 mg/dL?
**A:** Not met

**Q:** In plain terms: is recorded GLC at least 200 mg/dL for Cc1nnc2n1-c1ccc(Cl)cc1C(c1ccccc1Cl)=NC2 [TRIAZOLAM] ?
**A:** Not met

**Q:** Does CN/C(=N/CCSCc1nc[nH]c1C)NC#N [CIMETIDINE] have a reported GLC of at least 200 mg/dL?
**A:** Met

**Q:** Check this molecule for GLC at or above 200 mg/dL: Nc1c2c(nc3ccccc13)CCCC2 [TACRINE]
**A:** Not met

**Q:** Check the entry CCCc1cc(=O)[nH]c(=S)[nH]1 [PROPYLTHIOURACIL] : does GLC equal or exceed 200 mg/dL?
**A:** Not met

----------
Attribute: PT
- Species on record: Rattus norvegicus
- procedureDetails: Open TG-GATES - Regimen: Daily Repeat
- Type: toxicity, organism-based, Sprague-Dawley
- Design: regimen Daily Repeat, gender Male, age 6 weeks
- testConditions: in vivo, po, 0 mg/kg, […], tissue Blood, route gavage, dose level Control, time 28 day
Dear colleague, please return just the value in s, with no unit written.

INSERT INTO results (compound, experimentalresult) VALUES
  ('CN1C(=O)CCS(=O)(=O)C1c1ccc(Cl)cc1 (stereo not drawn) [CHLORMEZANONE]', 11.8),
  ('O=C(OC[C@H]1O[C@@H](OC(=O)c2cc(O)c(O)c(OC(=O)c3cc(O)c(O)c(O)c3)c2)[C@H](OC(=O)c2cc(O)c(O)c(OC(=O)c3cc(O)c(O)c(O)c3)c2)[C@@H](OC(=O)c2cc(O)c(O)c(OC(=O)c3cc(O)c(O)c(O)c3)c2)[C@@H]1OC(=O)c1cc(O)c(O)c(OC(=O)c2cc(O)c(O)c(O)c2)c1)c1cc(O)c(O)c(OC(=O)c2cc(O)c(O)c(O)c2)c1 [TANNIC ACID]', 11.8),
  ('CCOc1ccc(NC(C)=O)cc1 [PHENACETIN]', 14),
  ('NC1=NC(=O)C(c2ccccc2)O1 (stereo not drawn) [PEMOLINE]', 12.2),
  ('CNC(=C[N+](=O)[O-])NCCSCc1ccc(CN(C)C)o1 [RANITIDINE]', 12.4);

**Q:** // PT lookup, key: CN/C(=N/CCSCc1nc[nH]c1C)NC#N [CIMETIDINE]
**A:** 12.9

**Q:** PT lookup needed for Brc1ccccc1 [BROMOBENZENE] , thanks.
**A:** 12.5

**Q:** Given the compound CN(C)CCC(c1ccc(Cl)cc1)c1ccccn1 (stereo not drawn) [CHLORPHENIRAMINE] , what is its reported PT?
**A:** 14.5

**Q:** Given Nc1c2c(nc3ccccc13)CCCC2 [TACRINE] , state its recorded PT.
**A:** 16

Where do these numbers come from? They come from ChEMBL document CHEMBL3885861.
